Where these numbers come from: ChEMBL document CHEMBL1201862

# key: entry, value: GI50
Test system: DLD-1
EXPERIMENTAL PROTOCOL: NCI tumour cell line growth inhibition, 48 h
The source made the active and inactive calls. No stated cut-off is given here; in the data, active = GI50 up to about 1.1 µM and inactive = higher.
RECORDED METRIC: GI50

{"columns": ["COMPOUND", "VALUE"],
 "data": [
  ["COc1cc2cnc3c4cc(O)ccc4ccc3c2cc1OC", "> 100 µM (inactive)"],
  ["CCOC(=O)C1=C(Nc2cccc3ccccc23)OC/C1=N\\NC(=O)c1ccccc1O", "17.6 µM (inactive)"],
  ["Cc1[nH]c(=O)nc(N/N=C/c2ccc(Cl)cc2)c1C(=O)Nc1ccc(Cl)cc1", "> 33.7 µM (inactive)"],
  ["O=C(Nc1nc2c(ncn2C2OC(CO)C(O)C2O)c(=O)[nH]1)c1ccccc1 (stereo unspecified)", "> 100 µM (inactive)"],
  ["COc1ccc(C2NC(c3ccc(OC)cc3)C(C)C(=O)C2C)cc1 (stereo unspecified)", "> 100 µM (inactive)"],
  ["ICC1CCCO1 (stereo unspecified)", "> 100 µM (inactive)"],
  ["Cc1c(N)nc([C@H](CC(N)=O)NC[C@H](N)C(N)=O)nc1C(=O)N[C@H](C(=O)N[C@H](C)[C@@H](O)[C@H](C)C(=O)N[C@H](C(=O)NCCc1nc(-c2nc(C(=O)NCCC[S+](C)C)cs2)cs1)[C@@H](C)O)C(OC1OC(CO)C(O)C(O)C1OC1OC(CO)C(O)C(OC(N)=O)C1O)c1c[nH]cn1 (stereo partly specified)", "14.1 µM (inactive)"],
  ["O=c1c(Cc2ccccc2)c(O)cc2n1CCC2", "> 100 µM (inactive)"],
  ["C/C=C1\\CN2CCc3c([nH]c4ccccc34)C2CC1CCO (stereo unspecified)", "> 100 µM (inactive)"],
  ["Cc1ccccc1NC(=O)CC(=O)NNCC(=O)Nc1nnc(-c2ccccc2)s1", "98.9 µM (inactive)"],
  ["O=CN/C=C\\c1cc(O)ccc1O", "14.6 µM (inactive)"],
  ["Cc1ccc(NC(=O)C(=O)C2C(=O)N(c3ccccc3)N=C2N)cc1C (stereo unspecified)", "> 100 µM (inactive)"],
  ["CN(C)c1ccc(-c2cc(O)c3ccccc3n2)cc1", "> 100 µM (inactive)"],
  ["CC(C)=CCC/C(C)=C/CC/C(C)=C/CC/C=C(\\C)CC/C=C(\\C)CCC1SC1(C)C (stereo unspecified)", "> 100 µM (inactive)"],
  ["O=S1(=O)C[C@H](O)[C@H](O)CS1", "> 100 µM (inactive)"],
  ["COCCCCCC(=O)CP(=O)(OC)OC", "> 100 µM (inactive)"]
]}
